- Experiment Summary: NF-kB reporter blockers in CF airway cells – cell-based, GFP fluorescence, uHTS, primary screen (AID 588850);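 further: PAF is a Pseudomonas aeruginosa culture filtrate used as stimulus; plate controls were PAF-stimulated DMSO wells for no effect and unstimulated DMSO wells for full effect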
- Experimental Setup: KKLEB NF-kB-GFP reporter, PAF-induced, GFP fluorescence overnight; at 5 µM
Out of some 360,000 compounds screened, about 3,100 (0.86%) were called active.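 How the source made its calls: active means at least 50% inhibition at 5 µM, scaled per plate between neutral and stimulator controls; inactive means the rest.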 Shown is part of a subset that was picked to be rich in actives.
Your response should consist of one outcome taken from active, inactive

Query block: Called result for Cc1cn(C2CC(O)C(CO)O2)c(=O)n(CCCc2ccccc2)c1=O (stereo not given)
Result block: inactive

Query block: Could you check what this test reported for CC1CCCC(NC(=O)COC(=O)c2ccccc2C(=O)N(C)C2CCCCC2)C1C (stereo not given) ?
Result block: inactive

Query block: What classification did N#Cc1cccc(NC(=O)COC(=O)c2ccccc2C(=O)c2ccc(Cl)c([N+](=O)[O-])c2)c1 end up with in this test?
Result block: active

Query block: Just curious, what result did CN(C)CCN1CCN(c2cc(-c3cccc(Cl)c3)nc3ccnn23)CC1 get here?
Result block: inactive

Query block: # fetch the recorded call for CCOC(=O)C1=CCC2C(=O)N(Cc3ccccc3)C(=O)C12 (stereo not given) here
Result block: inactive

Query block: Tell me the assay call for O=C(c1c(F)cccc1F)N1CCN(c2ncc(Br)cn2)CC1 please.
Result block: inactive

Query block: Identify the outcome logged in this assay for the compound shown: CC(=O)Nc1ccc(NC(=O)C(C)OC(=O)c2ccccc2C(=O)c2ccc(Cl)c([N+](=O)[O-])c2)cc1 (stereo not given)
Result block: active

Query block: What is the recorded call for this compound in the test? ONC(=Nc1ccc(Cl)cc1)c1ccccc1Cl
Result block: inactive

Query block: What outcome does the record of this test show for CC(OC(=O)CNC(=O)c1ccc(Cl)c([N+](=O)[O-])c1)C(=O)NCc1ccco1 (stereo not given) ?
Result block: inactive

Query block: GET /call?item= O=C(c1ccccc1)N1CCN(C(=O)c2cc3nc(-c4ccccc4)cc(C(F)(F)F)n3n2)CC1 returns the recorded outcome of this test.
Result block: inactive

###

Assignment: determine reported inhibition for the given compounds.
- Experiment Summary: NF-kB reporter blockers in CF airway cells – cell-based, GFP fluorescence, uHTS, primary screen (AID 588850);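 further: PAF is a Pseudomonas aeruginosa culture filtrate used as stimulus; plate controls were PAF-stimulated DMSO wells for no effect and unstimulated DMSO wells for full effect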
- Experimental Setup: KKLEB NF-kB-GFP reporter, PAF-induced, GFP fluorescence overnight; at 5 µM; hits give high values
Hit rate of the full screen: of about 360,000 compounds, about 3,100 (0.86%) were called active. Only a selection was taken, and actives are over-represented in it overall.

Query block: Supply recorded inhibition for CC(=O)N1CCC(C(=O)OCc2ccc(Cl)cc2)(c2ccccc2)CC1 here.
Result block: -6.8% (inactive)

Query block: Given the compound CC(=O)c1ccc(N2CCN(S(=O)(=O)c3c(C)[nH]c(=O)[nH]c3=O)CC2)cc1 , write its reported inhibition.
Result block: 13.2% (inactive)

Query block: Output inhibition of CCN(C(=O)c1ccc(Br)cc1)c1ccccc1
Result block: 21.8% (inactive)

Query block: Determine its reported inhibition: CCOC(=O)c1c(NC(=O)CSc2nccc(=O)[nH]2)sc(C)c1C
Result block: -8.3% (inactive)

Query block: Provide only the value of recorded inhibition for CNC[C@H]1Oc2c(NC(=O)C3CCCCC3)cccc2C(=O)N([C@H](C)CO)C[C@@H]1C
Result block: 12.4% (inactive)
